# ASSAY TARGET: Carboanhydrase IX (Homo sapiens, UniProt Q16790 38-459)
# ASSAY METHOD TEXT: cell-based or functional assay
PROPERTY NAME: EC50 (nM) HT29
Numeric only. Scale: nM

Form field: reported EC50 (nM) HT29 of Example 290 (antibody, human IgG1, kappa, V domains shown, linker-toxophore on lysine NH) VH: QVELVESGGGLVQPGGSLRLSCAASGFTFSSYGMSWVRQAPGKGLEWVSGISSLGSTTYYADSVKGRFTISRDNSKNTLYLQMNSLRAEDTAVYYCARTGSPGTFMHGDHWGQGTLVTVSS VL: DIQMTQSPSSLSASVGDRVTITCRASQDINNYLSWYQQKPGKAPKLLIYGASNLQSGVPSRFSGSGSGTDFTLTISSLQPEDFAVYYCQQYYGRPTTFGQGTKVEIKR
115
